- testDetails: Pharmacokinetics of Compound C128 liposome in rats
- Type: in vivo
- testContext: rat, iv; C128 liposomes, 10 mg/kg tail vein injection, SD male rats, plasma, non-compartmental
metric: C0 (ng/mL)
Respond with the bare value in ng/mL.

Task: Please report the recorded C0 for `COc1cc(OC)cc(-c2nc[nH]c2-c2ccc(OC)c(F)c2)c1` .
Output: 20400

###

What pIC50 was measured for each of the following?
- System: K562
- testDetails: MTT assay of anti-tumor activity, K562
- Type: cell-based
- testContext: K562 cells, 72 hours
Expect pIC50 as a plain number equal to -log10 of the molar concentration.

Task: Field request: pIC50 | item: COc1cc(OC)cc(-c2ncn(C)c2-c2scc3c2OCCO3)c1 [Compound C238]
Output: 7.95

Task: Then COc1cc(OC)cc(-c2nc[nH]c2-c2ccc(N(C)C)cc2)c1 [Compound C130] ?
Output: 7.67

Task: Check COc1cc(-c2ncn(CCO)c2-c2ccc(N(CCCl)CCCl)cc2)cc(OC)c1OC [Compound C248] too.
Output: 7.95

Task: Try the molecule COc1cc(OC)cc(-c2ncoc2-c2ccc3c(c2)NC(=O)CO3)c1 [Compound C253]
Output: 6.51

###

- System: DU-145
- testDetails: MTT assay of anti-tumor activity, DU-145
- Type: cell-based
- testContext: DU-145 cells, 72 hours
metric: pIC50
Conceptually, pIC50 converts a concentration in mol/L into minus its log10.

Task: I'm curious: which pIC50 was measured for `COc1cc(OC)cc(-c2ncn(C)c2-c2scc3c2OCCO3)c1` tested on DU-145?
Output: 6.82

Task: Consider next the compound `COc1cc(OC)cc(-c2ncoc2-c2ccc3c(c2)NC(=O)CO3)c1` in the same way.
Output: 7.12

###

- testDetails: Pharmacokinetics of Compound C128 liposome in rats
- Type: in vivo
- testContext: rat, iv; C128 liposomes, 10 mg/kg tail vein injection, SD male rats, plasma, non-compartmental; read-out: AUC0-inf—obs
metric: AUC(0-inf) (ng·h/mL)
// units = ng·h/mL; emit number, no label

Task: Requested read-out: AUC(0-inf). Entry: `COc1cc(OC)cc(-c2nc[nH]c2-c2ccc(OC)c(F)c2)c1`
Output: 7770

###

For each record, write down the corresponding melting point.

Task: What does the record list as melting point for COc1cc(OC)cc(-c2ncoc2-c2ccc(OC)c(O)c2)c1 [Compound C110] ?
Output: 149.9 to 151.6 °C

Task: Moving on to COc1cc(-c2ncn(-c3ccc(C(F)(F)F)cc3)c2-c2ccc(N(C)C)cc2)cc(OC)c1OC [Compound C092]
Output: 215 to 217 °C

Task: Next: COc1cc(OC)cc(-c2ncoc2-c2ccc(OC)c(N)c2N)c1 [Compound C121]
Output: 132.6 to 134 °C

Task: Then what about the compound COc1cc(OC)cc(-c2nc[nH]c2-c2ccc(OC)c(F)c2)c1 [Compound C128] ?
Output: 127.1 to 128.9 °C

Task: Similarly, COc1ccc(-c2ocnc2-c2cc(OC)c([N+](=O)[O-])c(OC)c2)cc1O [CN07] ?
Output: 186.2 to 188.4 °C

Task: Also COc1cc(OC)cc(-c2ncoc2-c2ccc(NC(C)=O)cc2)c1 [Compound C109] ?
Output: 140.1 to 143.2 °C

Task: Would you kindly repeat that for COc1ccc(-c2ocnc2-c2cc(OC)c(OC(F)(F)F)c(OC)c2)cc1N [CN23] ?
Output: 167.9 to 170.2 °C

Task: Also, COc1cc(OC)cc(-c2ncoc2-c2ccc(N)cc2)c1 [Compound C112] please.
Output: 142 to 146 °C

Task: Would you kindly repeat that for COc1ccc(-c2ocnc2-c2cc(OC)c(O)c(OC)c2)cc1O [CN06] ?
Output: 144.3 to 145.5 °C

Task: CNc1ccc(-c2ocnc2-c2cc(OC)cc(OC)c2)cc1O [Compound C123] ?
Output: 149.9 to 151.6 °C

Task: Could you do the same for COc1ccc(-c2[nH]cnc2-c2cc(OC)c(N)c(OC)c2)cc1F [CN10] , please?
Output: 100.8 to 102.6 °C

Task: Check COc1ccc(-c2ocnc2-c2cc(OC)c(Cl)c(OC)c2)cc1N [CN21] too.
Output: 146.2 to 148.1 °C

Task: // repeat for COc1cc(OC)cc(-c2ncn(-c3cc(OC)c(OC)c(OC)c3)c2-c2ccc(OC)c(F)c2)c1 [Compound C091] and report
Output: 157 to 158.4 °C

Task: How about COc1cc(OC)cc(-c2ncoc2-c2ccc(OC)c(O)c2F)c1 [Compound C117] ?
Output: 168.1 to 172.4 °C

Task: Another compound: COc1ccc(-c2ocnc2-c2cc(OC)c(Br)c(OC)c2)cc1O [CN02]
Output: 184.7 to 187 °C

Task: Okay, and COc1ccc(-c2[nH]cnc2-c2cc(OC)c(Br)c(OC)c2)cc1N [CN13] ?
Output: 159.7 to 162 °C

Task: Now the same for COc1cc(OC)cc(-c2ncoc2-c2cc(N)c(OC)cc2N)c1 [Compound C119]
Output: 149.9 to 151.6 °C

Task: Repeat with COc1ccc(-c2c(-c3cc(OC)c(OC)c(OC)c3)ncn2-c2ccccc2)cc1O [Compound C087]
Output: 176 to 177 °C

Task: Same question for COc1cc(-c2ncn(-c3cc(OC)c(OC)c(OC)c3)c2-c2cc(OC)c(OC)c(OC)c2)cc(OC)c1OC [Compound C107] please.
Output: 168.8 to 170.9 °C

Task: Same question for COc1ccc(-c2[nH]cnc2-c2cc(OC)c([N+](=O)[O-])c(OC)c2)cc1O [CN16] please.
Output: 147.7 to 149 °C

Task: One more compound: COc1ccc(-c2[nH]cnc2-c2cc(OC)c(Br)c(OC)c2)cc1O [CN11]
Output: 184.7 to 187 °C

Task: Note, next up: COc1ccc(-c2ocnc2-c2cc(OC)c(Br)c(OC)c2)cc1N [CN04]
Output: 179.8 to 183.9 °C

Task: Another: COc1cc(OC)cc(-c2ncoc2-c2ccc(N(C)C)c(N)c2)c1 [Compound C113]
Output: 111.7 to 113.5 °C

Task: Another: COc1ccc(-c2ocnc2-c2cc(OC)c(O)c(OC)c2)cc1F [CN03]
Output: 161.3 to 162.8 °C

Task: Follow-up item: COc1ccc(-c2[nH]cnc2-c2cc(OC)c(N)c(OC)c2)cc1O [CN17]
Output: 141.8 to 143.7 °C
